Every entry's value here was drawn from paper PMC12166061.

Molecular target: His-SUMO-hTRIM21 PRY-SPRY (Homo sapiens)
Construct: Human TRIM21 PRY-SPRY domain (residues V287-I465, UniProt-ID: P19474); made in house; host or cells: E. coli BL21(DE3)
Assay: SPR fragment screening, human TRIM21 PRY-SPRY
Assay type: binding
Conditions: single dose 500 µM fragment; relative response, suramin reference threshold 100 relative RU
measure.name: SPR hTRIM21 (Response)
Keep it simple and answer with nothing but the number.

Query :: Need SPR hTRIM21 (Response), item CC(=O)NCCc1ccccc1C [Fragment Z52314092]
Result :: 75.76

Query :: Now consider CC(=O)Nc1ccc(CN2CCOCC2)cc1 [Fragment Z57450788] and answer again.
Result :: 43.78

Query :: // next record Cc1cc(N2CCNCC2)nc(C)n1 [Fragment Z274575916]
Result :: 76.44

* * *

Target: human TRIM21 PRY-SPRY domain (Homo sapiens, UniProt P19474)
Construct: Human TRIM21 PRY-SPRY domain (residues V287-I465, UniProt-ID: P19474); His6 (N, cleaved yes); SUMO (N, cleaved yes); made in house; host or cells: E. coli BL21(DE3)
Sequence (P19474 287-465): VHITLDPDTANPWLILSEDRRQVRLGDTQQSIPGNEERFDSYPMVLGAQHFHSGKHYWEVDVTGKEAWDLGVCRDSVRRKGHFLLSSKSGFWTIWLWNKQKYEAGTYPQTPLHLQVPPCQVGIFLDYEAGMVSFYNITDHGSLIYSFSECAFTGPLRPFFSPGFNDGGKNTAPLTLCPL
Experiment: Differential scanning fluorimetry (DSF, ΔTm), human TRIM21 PRY-SPRY domain
Format: binding
Settings: 2 mM compound, 8 μM protein
measure.name: Tm-Shift hTRIM21 (°C)
Respond numerically; units are °C and should not be typed.

Examples with answers:
molecule="CC#CCN(C)C1CCS(=O)(=O)CC1 [Fragment Z1318110042]" readout_number=0
molecule="CS(=O)(=O)NCCc1ccccc1 [Fragment Z45617795]" readout_number=-0.2
molecule="CCOC(=O)CN1CCS(=O)(=O)CC1 [Fragment Z793778804]" readout_number=0.1
molecule="CS(=O)(=O)NCCc1ccc(F)cc1 [Fragment Z45705015]" readout_number=-0.2
molecule="CS(=O)(=O)NC1CCOC2(CCCC2)C1 (stereo not drawn) [Fragment Z1446981563]" readout_number=-0.1
molecule="CC(CS(N)(=O)=O)c1ccccc1 (stereo not drawn) [Fragment Z1407673036]" readout_number=-0.4
molecule="CC(O)c1cnn(C2CCCC2)c1 (stereo not drawn) [Fragment Z2004563941]" readout_number=0
molecule="NS(=O)(=O)c1ccccc1OC(F)F [Fragment Z1003146540]" readout_number=0.5
molecule="O=S1(=O)CCN(Cc2ccco2)CC1 [Fragment Z1568344634]" readout_number=0
molecule="Cc1cc(N2CCCCC2)nc(CO)n1 [Fragment Z1980894300]" readout_number=0

Query :: Give the measured Tm-Shift hTRIM21 of Cc1cc(N2CCNCC2)nc(C)n1 [Fragment Z274575916] .
Result :: 0.2

Query :: Ok, now CC(C)N(C)c1ncnc2c1cnn2C [Fragment Z328695024]
Result :: -0.6

* * *

Target: His-mTRIM21 PRYSPRY (Mus musculus)
Construct: mouse TRIM21 PRY-SPRY domain (residues V291-M470, UniProt-ID: Q62191); made in house; host or cells: E. coli BL21(DE3)
Sequence (Q62191 291-470): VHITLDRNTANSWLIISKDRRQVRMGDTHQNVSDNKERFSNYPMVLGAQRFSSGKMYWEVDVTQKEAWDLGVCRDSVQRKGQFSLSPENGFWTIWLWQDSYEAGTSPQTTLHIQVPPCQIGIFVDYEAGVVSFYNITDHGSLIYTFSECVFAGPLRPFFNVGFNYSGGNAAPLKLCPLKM
Assay: SPR fragment screening and dose response, mouse TRIM21 PRY-SPRY
Assay type: binding
Conditions: single dose 500 µM fragment; relative response, suramin reference threshold 100 relative RU
For each record, check the reported SPR mTRIM21 (Response): if it is below 60 write fulfilled, else write not fulfilled.

Observe how each entry below is paired with its result.
compound=CC(=O)NCCc1ccccc1C label="not fulfilled"
compound=CC(=O)Nc1cc2c(cc1C)OCO2 label="not fulfilled"
compound=CC(=O)N1Cc2ccc(N)cc2C1 label="not fulfilled"
compound=NS(=O)(=O)c1ccccc1OC(F)F label=fulfilled

Query :: Please let me know if CC(C)N(C)c1ncnc2c1cnn2C shows SPR mTRIM21 (Response) below 60.
Result :: fulfilled

Query :: Try this compound too: CC1CN(C(=O)c2cnsn2)C(C)CO1 (stereo not shown)
Result :: fulfilled

* * *

Molecular target: human TRIM21 PRY-SPRY domain (Homo sapiens, UniProt P19474)
Construct: Human TRIM21 PRY-SPRY domain (residues V287-I465, UniProt-ID: P19474); His6 (N, cleaved yes); SUMO (N, cleaved yes); made in house; host or cells: E. coli BL21(DE3)
Experiment: Differential scanning fluorimetry (DSF, ΔTm), human TRIM21 PRY-SPRY domain
Assay type: binding
Conditions: 2 mM compound, 8 μM protein
measure.name: Tm-Shift hTRIM21 (°C)
Quick note: give the figure in °C, leave out the unit.

molecule="Cc1c(Cl)cccc1NC(=O)[C@@H]1CCCO1 [Fragment Z1545312521]" readout_number=-0.7
molecule="CC(=O)N1CCCC2(CCCCCC2)C1 [Fragment Z1275599911]" readout_number=-0.9
molecule="OC1CN(C(c2ccccc2)c2ccccc2)C1 [Fragment Z1696844792]" readout_number=-0.8

Query :: What does the data say about its Tm-Shift hTRIM21? Entry: O=C(c1ccc2c(c1)OCO2)N1CCCCCC1 [Fragment Z31432226]
Result :: -0.8

Query :: Another molecule: CS(=O)(=O)Cc1nc2ccccc2[nH]1 [Fragment Z126932614]
Result :: -0.2

Query :: Proceed to CC1CN(C(=O)c2cnsn2)C(C)CO1 (stereo not shown) [Fragment Z768399682]
Result :: 0

Query :: Quick one: CNC(=O)C1CNCCO1 (stereo not shown) [Fragment Z1636723439]
Result :: 0.1

Query :: Also CNC(=O)c1ccc(S(N)(=O)=O)cc1 [Fragment Z165170770] ?
Result :: 0

Query :: Note, next up: CC(NC(=O)C1CC1)c1cccnc1 (stereo not shown) [Fragment Z220996120]
Result :: 0

Query :: Moving on to CCNC1CCN(c2ccncc2)CC1 [Fragment Z2065616520]
Result :: 0.6

Query :: CN1CCC(Oc2cccc(F)c2)C1=O (stereo not shown) [Fragment Z1217960891] , same question.
Result :: -0.4

* * *

Biological target: full-length hTRIM21 with C-terminal NanoLuc fusion (Homo sapiens, UniProt P19474)
Sequence (P19474 whole entry, the tested form may be a part): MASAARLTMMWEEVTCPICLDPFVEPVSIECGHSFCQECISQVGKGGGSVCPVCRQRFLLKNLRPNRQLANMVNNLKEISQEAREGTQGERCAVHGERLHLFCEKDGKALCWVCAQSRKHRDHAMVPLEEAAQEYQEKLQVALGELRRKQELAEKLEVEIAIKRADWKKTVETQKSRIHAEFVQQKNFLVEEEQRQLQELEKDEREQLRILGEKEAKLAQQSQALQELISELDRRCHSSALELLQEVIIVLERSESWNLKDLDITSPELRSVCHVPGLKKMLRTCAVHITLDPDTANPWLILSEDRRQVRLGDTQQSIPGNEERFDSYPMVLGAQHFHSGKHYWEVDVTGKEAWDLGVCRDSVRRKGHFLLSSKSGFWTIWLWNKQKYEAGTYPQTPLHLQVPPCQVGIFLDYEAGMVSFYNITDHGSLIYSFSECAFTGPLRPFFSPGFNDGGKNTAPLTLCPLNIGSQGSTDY
Assay: cell-based
Details: NanoBRET EC50 (lysed), lysed cells (digitonin), tracer AL244 (2)
measure.name: EC50 (µM)
Dear colleague, please return just the value in µM, with no unit written.

Query :: // fetch full-length hTRIM21 with C-terminal NanoLuc fusion (Homo sapiens, UniProt P19474) EC50 for O=C(Nc1ccc(S(=O)(=O)Nc2ccccn2)cc1)c1ccccc1 [AL257 (3)]
Result :: 246

* * *

Target: His-mTRIM21 PRYSPRY (Mus musculus)
Construct: mouse TRIM21 PRY-SPRY domain (residues V291-M470, UniProt-ID: Q62191); made in house; host or cells: E. coli BL21(DE3)
Assay: SPR fragment screening and dose response, mouse TRIM21 PRY-SPRY
Type: binding
Settings: single dose 500 µM fragment; relative response, suramin reference threshold 100 relative RU
measure.name: SPR mTRIM21 (Response)
// no unit, no text: just the number

compound=Cc1c(Cl)cccc1NC(=O)[C@@H]1CCCO1 target_under_test="His-mTRIM21 PRYSPRY (Mus musculus)" measure_name="SPR mTRIM21 (Response)" readout_number=31.58
compound=NC(=O)N1CCN(C(=O)c2ccco2)CC1 target_under_test="His-mTRIM21 PRYSPRY (Mus musculus)" measure_name="SPR mTRIM21 (Response)" readout_number=38.54
compound="CNC(=O)C1CNCCO1 (centres unmarked)" target_under_test="His-mTRIM21 PRYSPRY (Mus musculus)" measure_name="SPR mTRIM21 (Response)" readout_number=142.5
compound="CS(=O)(=O)NC1CCOC2(CCCC2)C1 (centres unmarked)" target_under_test="His-mTRIM21 PRYSPRY (Mus musculus)" measure_name="SPR mTRIM21 (Response)" readout_number=27.71
compound="CCC(=O)N1CCCC(NS(C)(=O)=O)C1 (centres unmarked)" target_under_test="His-mTRIM21 PRYSPRY (Mus musculus)" measure_name="SPR mTRIM21 (Response)" readout_number=27.91
compound=Cc1cc(N2CCNCC2)nc(C)n1 target_under_test="His-mTRIM21 PRYSPRY (Mus musculus)" measure_name="SPR mTRIM21 (Response)" readout_number=164.1
compound=CCc1nc(Cn2ccccc2=O)no1 target_under_test="His-mTRIM21 PRYSPRY (Mus musculus)" measure_name="SPR mTRIM21 (Response)" readout_number=48.28
compound=CS(=O)(=O)NCCc1ccccc1 target_under_test="His-mTRIM21 PRYSPRY (Mus musculus)" measure_name="SPR mTRIM21 (Response)" readout_number=50.84
compound="CC(=O)N1CCCC(CNS(C)(=O)=O)C1 (centres unmarked)" target_under_test="His-mTRIM21 PRYSPRY (Mus musculus)" measure_name="SPR mTRIM21 (Response)" readout_number=42.61
compound=Cc1nc2[nH]c(C(C)C)cc(=O)n2n1 target_under_test="His-mTRIM21 PRYSPRY (Mus musculus)" measure_name="SPR mTRIM21 (Response)" readout_number=63.45

We now examine a further compound.
Query :: Any idea what SPR mTRIM21 (Response) was measured for CC(CS(N)(=O)=O)c1ccccc1 (centres unmarked) ?
Result :: 43.51
